Entries and their pIC50 (FRET)
# TARGET_ENTITY: RORγ ligand binding domain (LBD) (Homo sapiens (Human))
# Sequence (P51449 269-508): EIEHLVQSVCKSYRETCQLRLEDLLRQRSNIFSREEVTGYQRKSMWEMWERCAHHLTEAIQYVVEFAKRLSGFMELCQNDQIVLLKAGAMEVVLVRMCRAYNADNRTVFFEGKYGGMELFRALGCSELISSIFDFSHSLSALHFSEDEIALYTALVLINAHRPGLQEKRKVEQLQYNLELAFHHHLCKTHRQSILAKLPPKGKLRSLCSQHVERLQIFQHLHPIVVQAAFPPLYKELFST
# ASSAY_PROCEDURE: TR-FRET Activity Assay (ligand sensing assay, LANCE)
# APPLIED_CONDITIONS: TR-FRET, interaction of RORγ-LBD with coactivator peptide

INPUT: Tell me pIC50 (FRET) reported for CC(C)(C)NC(=O)c1ccc(-c2sc(C(=O)NC3CCS(=O)(=O)CC3)nc2CC2CCCCC2)c2ccccc12 [7/25]
OUTPUT: 6.2/6.6/6.5

INPUT: Tell me pIC50 (FRET) reported for CC1CC(C)CN(C(=O)c2nc(C(=O)NCC(C)(C)O)sc2-c2ccc(S(=O)(=O)NC(C)(C)C)c3ccccc23)C1 (stereo not shown) [304/8]
OUTPUT: 6.0/6.9/6.9

INPUT: Tell me pIC50 (FRET) reported for CC(C)(C)NS(=O)(=O)c1ccc(-c2sc(C(=O)NC3CCS(=O)(=O)CC3)nc2Cc2ccccc2)c2ccccc12 [Example 300]
OUTPUT: 7.1/8.2/8.4

INPUT: Tell me pIC50 (FRET) reported for CC(C)(C)NS(=O)(=O)c1ccc(-c2sc(C(=O)NC3CSC3)nc2CC2CCCCC2)c2ccccc12 [6/14]
OUTPUT: 6.8/8.7/8.7

INPUT: Tell me pIC50 (FRET) reported for CC(C)(C)c1cc(-c2nc(C(N)=O)oc2CC2CCCCC2)cc(C(C)(C)C)c1 [Example 101]
OUTPUT: 6.0
